Taken from patent US9617212B2.

# TEST_TARGET: Human MIF (MIF tautomerase) (Homo sapiens, UniProt P14174)
# Construct: purchased ProSpec
# Sequence (P14174 2-115 limits assumed): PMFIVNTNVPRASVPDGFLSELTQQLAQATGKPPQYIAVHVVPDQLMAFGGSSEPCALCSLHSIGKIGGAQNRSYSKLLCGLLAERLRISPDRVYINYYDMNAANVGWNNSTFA
# METHOD_NOTES: MIF Tautomerase Inhibitory Assay with L-Dopachrome Methyl Ester
# Format: biochemical
# APPLIED_CONDITIONS: relative potency class, MIF tautomerase inhibition; L-dopachrome methyl ester substrate, pH 7.34, no pre-incubation; read-out: IC50
Attribute: IC50

# MOLECULE, IC50
records = [
    ("CC(C)NC(C)[C@H]1CC[C@H](CN2Cc3cc(F)c(O)c(F)c3C2=O)CC1 (some centres unmarked)", "< 1000 nM"),
    ("CC(=O)[C@H]1CC[C@H](CN2Cc3ccc(O)c(F)c3C2=O)CC1", "< 1000 nM"),
    ("COC(=O)[C@H](NC(C)[C@H]1CC[C@H](CN2Cc3ccc(O)c(F)c3C2=O)CC1)C(C)C (single isomer, unassigned)", "< 1000 nM"),
    ("COC(=O)[C@H]1CC[C@H](CN2Cc3ccc(O)cc3C2=O)CC1", "< 1000 nM"),
    ("O=C1c2cc(O)ccc2CN1C[C@H]1CC[C@H](C(=O)OC2CCCC2)CC1", "5000 to 10000 nM"),
    ("O=C1c2c(ccc(O)c2F)CN1C[C@H]1CC[C@H](COc2cccc(F)c2)CC1", "< 1000 nM"),
    ("CC(C)(O)[C@H]1CC[C@H](CN2Cc3ccc(O)c(F)c3C2=O)CC1", "< 1000 nM"),
    ("COC(=O)[C@@H](CO)NC(C)C1CCC(CN2Cc3ccc(O)c(F)c3C2=O)CC1 (some centres unmarked)", "< 1000 nM"),
    ("C[C@@H](OC(=O)CCC(=O)O)[C@H]1CC[C@H](CN2Cc3ccc(O)c(F)c3C2=O)CC1 (single isomer, unassigned)", "< 1000 nM"),
    ("O=C1c2cc(O)ccc2CN1CC1CCC(O)CC1 (centres unmarked)", "1000 to 5000 nM"),
    ("CCC(O)[C@H]1CC[C@H](CN2Cc3ccc(O)c(F)c3C2=O)CC1 (some centres unmarked)", "< 1000 nM"),
    ("O=C1c2cc(O)ccc2CN1C[C@H]1CC[C@H](COc2cc(O)cc(F)c2)CC1", "1000 to 5000 nM"),
    ("COc1cccc(OC(C)[C@H]2CC[C@H](CN3Cc4cc(F)c(O)c(F)c4C3=O)CC2)c1 (some centres unmarked)", "< 1000 nM"),
    ("O=C1c2cc(O)ccc2CN1C[C@H]1CC[C@H](C(O)C2CCCCC2)CC1 (some centres unmarked)", "< 1000 nM"),
    ("CC(Oc1cccc(F)c1)[C@H]1CC[C@H](CN2Cc3ccc(O)cc3C2=O)CC1 (some centres unmarked)", "< 1000 nM"),
    ("O=C1c2cc(O)ccc2CN1C1CCCCCC1", "5000 to 10000 nM"),
    ("CC(C)NC(C)[C@H]1CC[C@H](CN2Cc3ccc(O)cc3C2=O)CC1 (some centres unmarked)", "1000 to 5000 nM"),
    ("CC(NCCC(=O)O)C1CCC(CN2Cc3ccc(O)c(F)c3C2=O)CC1 (centres unmarked)", "< 1000 nM"),
    ("NC[C@H]1CC[C@H](CN2Cc3ccc(O)c(F)c3C2=O)CC1", "1000 to 5000 nM"),
    ("O=C1c2cc(O)ccc2CN1C[C@H]1CC[C@H](COc2cccc(O)c2)CC1", "< 1000 nM"),
]
